This document collects IC50 values reported for UniProt:P51681.
Sequence (P51681 whole entry): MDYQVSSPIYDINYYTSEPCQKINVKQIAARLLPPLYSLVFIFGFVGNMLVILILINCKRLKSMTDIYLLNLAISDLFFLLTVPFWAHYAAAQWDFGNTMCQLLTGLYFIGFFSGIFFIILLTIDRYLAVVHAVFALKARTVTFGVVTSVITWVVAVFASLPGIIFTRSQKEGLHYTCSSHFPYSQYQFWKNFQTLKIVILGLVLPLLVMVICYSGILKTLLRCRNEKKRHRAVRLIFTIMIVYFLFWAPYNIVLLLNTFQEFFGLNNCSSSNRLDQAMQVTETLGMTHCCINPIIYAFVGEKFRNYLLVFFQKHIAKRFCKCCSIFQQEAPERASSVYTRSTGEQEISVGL
Give bare numbers, in nM.

The cases that follow already have their IC50 on record.
CCCCC1CN(C[C@H]2CC[C@@H](OCC)CC2)C(=O)CC12CCN(C1(C)CCN(C(=O)c3c(C)ncnc3C)CC1)CC2 (stereo partly shown) [I-9] | 32
CCCCC1CN(C[C@H]2CC[C@H](OCC)CC2)C(=O)CC12CCN(C1(C)CCN(C(=O)c3c(C)ncnc3C)CC1)CC2 (mixture of isomers) [I-1] | 30.4
CCCCC1CN(C[C@@H]2CCOC2)C(=O)CC12CCN(C1(C)CCN(C(=O)c3c(C)ccnc3C)CC1)CC2 (stereo partly shown) [I-10] | 24.9
CCCCC1CN(CC2CCOCC2)C(=O)CC12CCN(C1(C)CCN(C(=O)c3c(C)cc(C#N)nc3C)CC1)CC2 (stereo not shown) [I-13] | 19.7
CCCCC1CN(CC2CCOCC2)C(=O)CC12CCN(C1(C)CCN(C(=O)c3c(C)ncnc3C)CC1)CC2 (stereo not shown) [I-4] | 17.2

Could you report IC50 for every entry in the following list?
1. CCCCC1CN(CC2CCN(S(C)(=O)=O)CC2)C(=O)CC12CCN(C1(C)CCN(C(=O)c3c(C)ncnc3C)CC1)CC2 (stereo not shown) [I-6]
2. CCCCC1CN(C[C@H]2CC[C@H](OC)CC2)C(=O)CC12CCN(C1(C)CCN(C(=O)c3c(C)ncnc3C)CC1)CC2 (stereo partly shown) [I-5]

A:
16.9
20.8
